# TARGET SYSTEM: EPHB1 (UniProt P54762)
# Sequence (P54762 whole entry, looked up): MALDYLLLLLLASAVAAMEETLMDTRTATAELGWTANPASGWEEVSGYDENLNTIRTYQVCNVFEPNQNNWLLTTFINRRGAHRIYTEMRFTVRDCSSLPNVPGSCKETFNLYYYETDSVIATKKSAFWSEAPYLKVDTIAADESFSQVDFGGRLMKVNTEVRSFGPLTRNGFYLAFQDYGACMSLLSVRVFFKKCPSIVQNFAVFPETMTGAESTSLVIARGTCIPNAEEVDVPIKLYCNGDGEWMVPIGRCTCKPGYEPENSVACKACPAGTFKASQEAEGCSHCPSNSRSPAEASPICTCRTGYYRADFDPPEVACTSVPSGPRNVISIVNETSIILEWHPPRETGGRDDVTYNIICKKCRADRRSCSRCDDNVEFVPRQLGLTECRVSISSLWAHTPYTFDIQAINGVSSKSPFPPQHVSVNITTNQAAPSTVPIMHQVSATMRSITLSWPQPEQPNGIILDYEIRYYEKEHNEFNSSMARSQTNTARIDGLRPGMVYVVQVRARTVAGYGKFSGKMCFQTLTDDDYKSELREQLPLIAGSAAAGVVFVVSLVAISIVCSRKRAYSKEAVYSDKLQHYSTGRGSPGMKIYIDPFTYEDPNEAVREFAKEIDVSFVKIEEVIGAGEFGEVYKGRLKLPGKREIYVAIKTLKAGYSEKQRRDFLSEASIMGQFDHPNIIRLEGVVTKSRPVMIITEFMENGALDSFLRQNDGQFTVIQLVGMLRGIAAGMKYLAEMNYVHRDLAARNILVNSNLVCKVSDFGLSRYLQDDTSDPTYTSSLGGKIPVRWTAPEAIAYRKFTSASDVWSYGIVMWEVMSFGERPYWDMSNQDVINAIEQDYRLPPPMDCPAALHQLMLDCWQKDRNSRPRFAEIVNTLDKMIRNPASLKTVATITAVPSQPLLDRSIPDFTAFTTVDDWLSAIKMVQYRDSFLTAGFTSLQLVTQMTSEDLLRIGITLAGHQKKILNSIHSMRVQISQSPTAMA
# ASSAY OVERVIEW: phosphorylation enrichment, bacterial display (enrichment ratio); higher = better substrate or ligand; peptides without Tyr show the background;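 further: 11-residue human phosphosite peptides and single-mutation variants displayed on the E. coli surface, counted by deep sequencing, each peptide's frequency after selection divided by its frequency in the unselected input library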;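 further: frequency after pTyr selection over input frequency; kinase dosed for 20-30% of maximal phosphorylation in three min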
Classify by measured phosphorylation enrichment: Condition met if it is equal to or exceeds 0.6, Condition not met if it is smaller.

In: Test whether the sequence IDDNEYAFLKA [HNF4A_Y286_YF] records phosphorylation enrichment of 0.6 or higher.
Out: Condition met

In: Test whether the sequence VYYDLYGGEKF [PTPN11_Y66_D61V] records phosphorylation enrichment of 0.6 or higher.
Out: Condition met

In: Test whether the sequence FADIAYNFHHG [PAH_Y166_R169H_YF] records phosphorylation enrichment of 0.6 or higher.
Out: Condition not met

In: Test whether the sequence HGVSSYDTIIS [LDLR_Y465_V468I] records phosphorylation enrichment of 0.6 or higher.
Out: Condition met

In: Test whether the sequence LEISPYMLSGR [LRRK2_Y1718] records phosphorylation enrichment of 0.6 or higher.
Out: Condition met

In: Test whether the sequence ANQDDYISFRH [IMP4_Y226] records phosphorylation enrichment of 0.6 or higher.
Out: Condition not met

Reference source for all entries: the supplement of paper PMC10065799
